Reported solubility kinetic at 20 h is given for each of the following molecules.
TEST: Kinetic solubility of the compound in FaSSIF at pH 6.5 after 20 hrs by shake flask method
Assay type: physicochemical
ASSAY CONTEXT: read-out: Kinetic_solubility

INSERT INTO results (molecule, reported_value) VALUES
  ('FC(F)(F)c1ccc(-c2nc3cnc(Nc4ccccn4)cc3[nH]2)cn1', '50 to 100 µM'),
  ('Fc1ccc(-c2nc3cnc(Nc4ccccn4)cc3[nH]2)cc1F', '50 to 100 µM'),
  ('O=C(c1ccc(Nc2cc3[nH]c(-c4ccc(C(F)(F)F)nc4)nc3cn2)nc1)N1CCCC1', '< 5 µM'),
  ('FC(F)(F)c1cccc(-c2nc3cnc(Nc4cccc(C(F)(F)F)n4)cc3[nH]2)c1', '50 to 100 µM'),
  ('NC(=O)c1ccc(Nc2cc3[nH]c(-c4cccc(C(F)(F)F)c4)nc3cn2)nc1', '< 5 µM');

Ask: What does the record list as solubility kinetic at 20 h for `O=C(c1ccc(Nc2cc3[nH]c(-c4ccc(C(F)(F)F)nc4)nc3cn2)nc1)N1CCNCC1` ?
Result: 161 µM

Ask: Ok, now `Fc1ccc(-c2nc3cnc(Nc4ccc(C(F)(F)F)cn4)cc3[nH]2)cc1F`
Result: 50 to 100 µM

Ask: Ok, now FC1(F)CCC(c2nc3cnc(Nc4ccc(C(F)(F)F)cn4)cc3[nH]2)C1 (centres undefined)
Result: 163 µM

Ask: Ok, now `O=C(c1ccc(Nc2cc3[nH]c(-c4ccc(C(F)(F)F)nc4)nc3cn2)nc1)N1CCOCC1`
Result: 58 µM

Ask: Ok, now `O=C(O)c1ccnc(Nc2cc3[nH]c(-c4ccc(C(F)(F)F)nc4)nc3cn2)c1`
Result: < 5 µM

Ask: Ok, now `Fc1ccc(-c2nc3cnc(Nc4ccccn4)cc3[nH]2)cc1C(F)(F)F`
Result: 50 to 100 µM

Ask: Ok, now `O=C(NC1CC1)c1ccc(Nc2cc3[nH]c(-c4ccc(C(F)(F)F)nc4)nc3cn2)nc1`
Result: < 5 µM

Ask: Ok, now `FC(F)(F)c1ccc(Nc2cc3[nH]c(C4CCCC4)nc3cn2)nc1`
Result: 85 µM

Ask: Ok, now `Fc1ccnc(Nc2cc3[nH]c(-c4ccc(F)c(F)c4)nc3cn2)c1`
Result: 50 to 100 µM

* * *

TEST: Kinetic solubility of the compound in phosphate buffered saline at pH 6.5 after 20 hrs by shake flask method
Type: physicochemical
ASSAY CONTEXT: read-out: Kinetic_solubility
ASSAY ENDPOINT: solubility kinetic at 20 h (µM)

INSERT INTO measurements (chemical_smiles, units_text, reported_value) VALUES
  ('FC(F)(F)c1cccc(-c2nc3cnc(Nc4ccncc4)cc3[nH]2)c1', 'µM', 10);

(1) O=C(c1ccc(Nc2cc3[nH]c(-c4ccc(C(F)(F)F)nc4)nc3cn2)nc1)N1CCNCC1
(2) COC(=O)c1ccc(Nc2cc3[nH]c(-c4ccc(C(F)(F)F)nc4)nc3cn2)nc1
Ask: # min-compare on solubility kinetic at 20 h between 1 and 2 Field: selected label. Fill in the label of the entry you choose.
Result: 2
(2: 12 µM, 1: 168 µM)

* * *

TEST: Kinetic solubility of the compound in HCl at pH 2 after 20 hrs by shake flask method
Type: physicochemical
ASSAY CONTEXT: read-out: Kinetic_solubility
ASSAY ENDPOINT: solubility kinetic at 20 h (µM)

Worked examples follow.
INSERT INTO results (compound, reported_value) VALUES
  ('Fc1ccnc(Nc2cc3[nH]c(-c4ccc(F)c(F)c4)nc3cn2)c1', 166),
  ('O=C(NC1CC1)c1ccc(Nc2cc3[nH]c(-c4ccc(C(F)(F)F)nc4)nc3cn2)nc1', 99),
  ('O=C(c1ccc(Nc2cc3[nH]c(-c4ccc(C(F)(F)F)nc4)nc3cn2)nc1)N1CCNCC1', 200),
  ('O=C(c1ccc(Nc2cc3[nH]c(-c4ccc(C(F)(F)F)nc4)nc3cn2)nc1)N1CCCC1', 196),
  ('CN1CCN(c2ccc(Nc3cc4[nH]c(-c5cccc(C(F)(F)F)c5)nc4cn3)nc2)CC1', 190);

(A) Fc1ccc(Nc2cc3[nH]c(-c4ccc(F)c(C(F)(F)F)c4)nc3cn2)nc1
(B) FC1(F)CCC(c2nc3cnc(Nc4ccc(C(F)(F)F)cn4)cc3[nH]2)C1 (stereo not given)
(C) O=C(O)c1ccc(Nc2cc3[nH]c(-c4ccc(C(F)(F)F)nc4)nc3cn2)nc1
(D) FC(F)(F)Oc1ccc(-c2nc3cnc(Nc4ccccn4)cc3[nH]2)cc1
Ask: Ranking field: solubility kinetic at 20 h; order: falling. Quick reminder: the answer is the labels in the order asked.
Result: B, D, A, C

(a) O=C(O)c1ccc(Nc2cc3[nH]c(-c4ccc(F)c(F)c4)nc3cn2)nc1
(b) FC(F)(F)c1ccc(Nc2cc3[nH]c(C4CCCC4)nc3cn2)nc1
Ask: # min-compare on solubility kinetic at 20 h between a and b Field: selected label. Fill in the label of the entry you choose.
Result: a
(a: 11 µM, b: 132 µM)

* * *

Reported solubility kinetic at 20 h is given for each of the following compounds.
TEST: Kinetic solubility of the compound in phosphate buffered saline at pH 6.5 after 20 hrs by shake flask method
Type: physicochemical
ASSAY CONTEXT: read-out: Kinetic_solubility

Worked examples follow.
INSERT INTO assay_data (chemical_smiles, assay_endpoint, reported_value) VALUES
  ('Fc1ccc(-c2nc3cnc(Nc4ccc(C(F)(F)F)cn4)cc3[nH]2)cc1F', 'solubility kinetic at 20 h', '< 5 µM'),
  ('FC(F)(F)c1cccc(-c2nc3cnc(Nc4cc(-c5nnn[nH]5)ccn4)cc3[nH]2)c1', 'solubility kinetic at 20 h', '< 5 µM'),
  ('FC(F)(F)Oc1ccc(-c2nc3cnc(Nc4ccccn4)cc3[nH]2)cc1', 'solubility kinetic at 20 h', '< 5 µM');

Now look at this entry.
Ask: What does the record list as solubility kinetic at 20 h for `FC(F)(F)c1cccc(-c2nc3cnc(Nc4cccc(C(F)(F)F)n4)cc3[nH]2)c1` ?
Result: < 5 µM

* * *

TEST: Kinetic solubility of the compound in HCl at pH 2 after 20 hrs by shake flask method
Assay type: physicochemical
ASSAY CONTEXT: read-out: Kinetic_solubility
ASSAY ENDPOINT: solubility kinetic at 20 h (µM)

INSERT INTO assay_data (chemical_smiles, assay_endpoint, reported_value) VALUES
  ('FC(F)(F)c1ccc(Nc2cc3[nH]c(CC4CC4)nc3cn2)nc1', 'solubility kinetic at 20 h', 186),
  ('FC(F)(F)c1ccc(-c2nc3cnc(Nc4ccccn4)cc3[nH]2)cn1', 'solubility kinetic at 20 h', 180),
  ('CC1(c2nc3cnc(Nc4ccc(C(F)(F)F)cn4)cc3[nH]2)CC1', 'solubility kinetic at 20 h', 200),
  ('FC(F)(F)c1cccc(-c2nc3cnc(Nc4ccncc4)cc3[nH]2)c1', 'solubility kinetic at 20 h', 200),
  ('CNC(=O)c1ccc(Nc2cc3[nH]c(-c4ccc(C(F)(F)F)nc4)nc3cn2)nc1', 'solubility kinetic at 20 h', 170);

(1) FC(F)(F)c1ccc(Nc2cc3[nH]c(C4CCOCC4)nc3cn2)nc1
(2) Fc1ccc(-c2nc3cnc(Nc4ccccn4)cc3[nH]2)cc1F
(3) FC(F)(F)c1cccc(-c2nc3cnc(Nc4ccc(N5CCOCC5)cn4)cc3[nH]2)c1
(4) FC(F)(F)c1cccc(-c2nc3cnc(Nc4cccc(C(F)(F)F)n4)cc3[nH]2)c1
Ask: Ranking field: solubility kinetic at 20 h; order: falling. Quick reminder: the answer is the labels in the order asked.
Result: 1, 2, 3, 4

* * *

TEST: Kinetic solubility of the compound in HCl at pH 2 after 20 hrs by shake flask method
Type: physicochemical
ASSAY CONTEXT: read-out: Kinetic_solubility
Reported solubility kinetic at 20 h is given for each of the following compounds.

INSERT INTO assay_data (chemical_smiles, reported_value) VALUES
  ('N#Cc1ccc(Nc2cc3[nH]c(-c4cccc(C(F)(F)F)c4)nc3cn2)nc1', '< 5 µM'),
  ('Fc1cnc(Nc2cc3[nH]c(-c4cccc(C(F)(F)F)c4)nc3cn2)c(F)c1', '< 5 µM'),
  ('O=C(O)c1ccnc(Nc2cc3[nH]c(-c4ccc(C(F)(F)F)nc4)nc3cn2)c1', '< 5 µM'),
  ('FC(F)(F)c1ccc(Nc2cc3[nH]c(-c4cccc(C(F)(F)F)c4)nc3cn2)nc1', '< 5 µM');

Now look at this entry.
Ask: What does the record list as solubility kinetic at 20 h for `COc1ccnc(Nc2cc3[nH]c(-c4cccc(C(F)(F)F)c4)nc3cn2)c1` ?
Result: < 5 µM

Sourced from ChEMBL document CHEMBL4184318
